# Test system: MDA-MB-231 breast
# procedure_summary: NCI-60 one-dose screen, 48 h
# setup_conditions: 10 µM
This is part of a sample that, as a whole, favours compounds with a hit. Of some 83,000 tested, about 20% had one in any assay. The source made the active and inactive calls. The calls were made as follows: active = growth percent below 10; inactive = the rest.
Output constraint: value belongs to t (active), f (inactive)

Sample answers from the record:
compound | target_system | group_label
COc1ccc2nc(-c3ccc(Cl)cc3)cc(-c3nnc(SC/C(=N\O)c4ccccc4)n3-c3ccccc3)c2c1 | MDA-MB-231 breast | f
O=C1c2ccccc2C(=O)c2c1ccc(C(Br)Br)c2Cl | MDA-MB-231 breast | t
CCn1c(SC/C(=N/O)c2ccccc2)nnc1-c1ccccc1 | MDA-MB-231 breast | f
Cc1c(Cl)cccc1NC(=O)CCCl | MDA-MB-231 breast | f
COc1cc(-c2ccc(N=Nc3ccc4c(S(=O)(=O)O)ccc(N)c4c3O)c(OC)c2)ccc1N=Nc1ccc2c(S(=O)(=O)O)ccc(N)c2c1O | MDA-MB-231 breast | f
CCCc1cn(CC(=O)Nc2nc3ccccc3s2)nn1 | MDA-MB-231 breast | f
CC(=O)Nc1ccc2c(c1)C(=O)c1cccc(C(=O)O)c1-2 | MDA-MB-231 breast | f
COc1ccc(-c2nn(-c3cccc(Cl)c3)cc2/C=C2\NC(=S)N(c3ccc(Cl)cc3)C2=O)cc1 | MDA-MB-231 breast | f

# outcome recorded in this test, key = `CNS(=O)(=O)Oc1ccc(-c2sc3cc(OS(=O)(=O)NC)ccc3c2C(=O)c2ccc(OCCN3CCCCC3)cc2)cc1`
f

# outcome recorded in this test, key = `CC1(C)N=C(N)N=C(N)N1c1cccc(C#N)c1`
f
